This section presents compounds with their documented pKi values.
Target: ORG (O. radicata α-galactosidase)
Construct: native, purified from commercial dry fruiting bodies; 74 kDa by gel filtration, SDS-PAGE bands 50 and 24 kDa
Assay: pNPG hydrolysis, absorbance at […] nm, Dixon plot
Conditions: mixed-type inhibition; pNPG 1.5-3 mM as substrate, NaAc-HAc pH 4.6, 40 °C
pKi here is simply -log10 of the concentration when that concentration is written in mol/L.

OC[C@H]1O[C@H](OC[C@H]2OC(O)[C@H](O)[C@@H](O)[C@@H]2O)[C@H](O)[C@@H](O)[C@H]1O (some centres unmarked) :: 2.73

# ---- query compound ----
[in] // Input: OC[C@H]1OC(O)[C@H](O)[C@@H](O)[C@H]1O (some centres unmarked) . Output its pKi only.
[out] 2.23
